# assayed system: human Orexin 1 receptor (Homo sapiens, UniProt O43613)
# Construct: stably expressing the full-length human Orexin 1 receptor; expressed in transfected cells; host or cells: CHO-K1 (CHO-K1/hOX1), co-expressing aequorin
# Sequence (O43613 1-425): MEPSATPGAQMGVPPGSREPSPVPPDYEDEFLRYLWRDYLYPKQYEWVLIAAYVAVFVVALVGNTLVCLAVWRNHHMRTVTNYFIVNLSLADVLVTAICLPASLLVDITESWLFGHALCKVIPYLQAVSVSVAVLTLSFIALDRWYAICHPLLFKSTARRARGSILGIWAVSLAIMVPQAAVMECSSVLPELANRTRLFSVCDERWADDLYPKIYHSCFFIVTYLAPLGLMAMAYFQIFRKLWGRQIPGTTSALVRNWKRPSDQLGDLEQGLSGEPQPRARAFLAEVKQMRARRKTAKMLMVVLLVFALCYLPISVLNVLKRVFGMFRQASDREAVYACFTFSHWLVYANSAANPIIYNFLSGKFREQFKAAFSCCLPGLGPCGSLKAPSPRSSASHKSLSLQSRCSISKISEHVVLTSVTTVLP
# assay summary: Assay A: In vitro testing of OX1R potency: OX1R IP1 (HTRF, CHO-K1/hOX1 cells, Orexin A as agonist)
# Type: cell-based
# protocol conditions: Orexin A 50 nM; read-out: OX1R Kb (Orexin A concentration used)
just bin them by Kb: class A: < 0.1 nM; class B: ≥ 0.1 nM and < 0.5 nM; class C: ≥ 0.5 nM

CCN(C(=O)c1ccccc1-c1ncccn1)[C@@H](C)COc1ccc(C(F)(F)F)cn1 = class A

Query: Which of the defined bands does the recorded Kb of CCN(C(=O)c1cc(F)ccc1-n1nccn1)[C@@H](C)COc1ccc(C(F)(F)F)cn1 sit within?
Reply: class B

Query: Place this molecule in its band: CCN(C(=O)c1cccc(F)c1-c1ncccn1)[C@@H](C)COc1ccc(OC(F)(F)F)cn1
Reply: class B

Query: Lab log: CCN(C(=O)c1c(F)cccc1-n1nccn1)[C@@H](C)COc1ccc(C(F)(F)F)cn1 — assign Kb category
Reply: class B

Query: Assign a category based on measured Kb for CCN(C(=O)c1ccccc1-n1nccn1)[C@@H](C)COc1ncc(C(F)(F)F)cc1F and give only the class name.
Reply: class B

Query: Class (by measured Kb) for CCN(C(=O)c1ccccc1-c1ccn(C)n1)[C@@H](C)COc1ccc(C(F)(F)F)cn1
Reply: class B
